# protocol.details: melting temperature; fluorescence melt of hairpins on a sequencing array, two-state fit, raised by 9.35 °C to match UV melts
# setup.conditions: sodium 0.088 M
Mark condition met for Tm under 50 °C, condition not met if at or over.

Record excerpt, results attached:
> print(dat)
                                seq.text         class.name
1  GACGGCGCGAAAGCGGTC (((..(((....))))))      condition met
2      GATCGGCTTCCCGATC ((((((....))))))  condition not met
3  GGTACCGAAAGGTGCACC ((((((....)))..)))      condition met
4      GATCGATTCATCGATC ((((((....))))))  condition not met
5  GTCAGTGGAAACACTGAC (((((((....)))))))  condition not met

Quick check: Tm of CGGGGGCGGAAACGCCCG (((..(((....)))))) under 50 °C?
condition not met

Quick check: Tm of GATCAAAGCTTGATC ((((((...)))))) under 50 °C?
condition met

Quick check: Tm of GCTTCAACGAAAGTTAGC (((..(((....)))))) under 50 °C?
condition met

Quick check: Tm of GATACGCGAAAGCGATC (((.(((....)))))) under 50 °C?
condition met

Quick check: Tm of GCAGGCGAAAGCCGTTGC ((((((....)))..))) under 50 °C?
condition not met

Quick check: Tm of GATGGGGAAACCCATC ((((((....)))))) under 50 °C?
condition not met

Quick check: Tm of GCATTAGGAAACTAACGC ((.((((....)))).)) under 50 °C?
condition met

Quick check: Tm of GCGTCGCGAAAGCATCGC (((..((....))..))) under 50 °C?
condition not met

Quick check: Tm of GTGATACGAAAGTAGCAC (((.(((....))).))) under 50 °C?
condition not met

Quick check: Tm of GCGGGAGGAAACCCCCAC (.(((.(....).))).) under 50 °C?
condition met

Quick check: Tm of CGCCTCGGAAACGAAGCG (((.(((....))).))) under 50 °C?
condition met

Quick check: Tm of GCAAAAACGAAAGTTTGC (((..(((....)))))) under 50 °C?
condition met

Quick check: Tm of CTTGGGAAACCAAG (((((....))))) under 50 °C?
condition met

Quick check: Tm of GCTGCGCGAAAGCACGGC ((.(.((....)).).)) under 50 °C?
condition not met

Quick check: Tm of GTTTGGGGAAACTCAAAC (((((.(....).))))) under 50 °C?
condition met

Quick check: Tm of GCTAGCGAAAGCTAGAGC ((((((....)))..))) under 50 °C?
condition not met

Quick check: Tm of GCGGACGAAAGTCACGC ((((((....))).))) under 50 °C?
condition not met

---

# protocol.details: folding enthalpy; higher = less favourable; fluorescence melt of hairpins on a sequencing array, two-state fit
# setup.conditions: sodium 0.088 M
// folding enthalpy lookup, one value per entry
Numbers only here, please. The scale is kcal/mol.

Please review the following examples before continuing.
> print(dat)
                                seq.text  measure.unit  recorded.result
1  GAGGTTGGAAACAGCTTC ((.(.((....)).).))      kcal/mol              -36
2  GCATTGCCGAAAGGCTGC (((..(((....))))))      kcal/mol            -14.8
3  GTTTAGGGAAACTTAAAC (((((.(....).)))))      kcal/mol            -15.4
4      GATCTGGAGGCAGATC ((((((....))))))      kcal/mol            -31.1
5  GGCCCGCGAAAGCGTGCC (((.(((....))).)))      kcal/mol            -26.5

Return the recorded folding enthalpy value; entry: GGTTTGAAAAAACC (((((....)))))
-25

---

// folding enthalpy lookup, one value per entry
# protocol.details: folding enthalpy; higher = less favourable; fluorescence melt of hairpins on a sequencing array, two-state fit
# setup.conditions: sodium 0.088 M
Numbers only here, please. The scale is kcal/mol.

Please review the following examples before continuing.
> print(dat)
                                seq.text  recorded.result
1  GACGGCCCGAAAGGGGTC (((..(((....))))))             -8.8
2  GGACGTGCGAAAGCATCC (((..(((....))))))            -9.73
3  GTCGAAGGAAACTTCGGC (.(((((....))))).)            -43.1
4  GGAGTCGAAAGACCCTCC ((((((....)))..)))            -16.7
5  GTAACGGGAAACCATTAC ((((.((....)).))))            -11.8
6      GATCTCAACCGAGATC ((((((....))))))            -45.1

Return the recorded folding enthalpy value; entry: GATCATTGTCATGATC ((((((....))))))
-31.7

Return the recorded folding enthalpy value; entry: GGAGGCCGAAAGGCTTCC (((.(((....))).)))
-28.9

Return the recorded folding enthalpy value; entry: GTATCCGGAAACAGATAC (((((.(....).)))))
-23.4

Return the recorded folding enthalpy value; entry: CGTGTCCGGAAACGGACG (((..(((....))))))
-7.66

Return the recorded folding enthalpy value; entry: GCTGCAGGAAACCGCAGC (((((.(....).)))))
-32.9

Return the recorded folding enthalpy value; entry: GATCTGGCACAGATC ((((((...))))))
-38.8

Return the recorded folding enthalpy value; entry: GCCCGCCGAAAGGCAGGC (((.(((....))).)))
-20.8

Return the recorded folding enthalpy value; entry: GCATCCGGAAACGGACAC (..((((....))))..)
-12.7

Return the recorded folding enthalpy value; entry: GTTCCCGAAAGGGTGAAC ((((((....)))..)))
-12.5

---

# protocol.details: melting temperature; fluorescence melt of hairpins on a sequencing array, two-state fit, raised by 9.35 °C to match UV melts
# setup.conditions: sodium 0.088 M
Mark TRUE for Tm under 50 °C, FALSE if at or over.

Record excerpt, results attached:
> print(dat)
                                seq.text  class.name
1  GTTACGGGAAACTGTGAC ((.((.(....).)).))        TRUE
2      GATCGATTGATCGATC ((((((....))))))       FALSE
3  GGGCACCGAAAGGTTCCC (((.(((....))).)))       FALSE
4  GTGAAAGGAAACTTTTAC ((.((((....)))).))        TRUE

Quick check: Tm of GCTGGCCGAAAGGCAAGC (((.(((....))).))) under 50 °C?
FALSE

Quick check: Tm of GATCTAACTTTAGATC ((((((....)))))) under 50 °C?
TRUE

Quick check: Tm of GCGACCATTCGC ((((....)))) under 50 °C?
TRUE

Quick check: Tm of GCCGAGCGAAAGCCAGGC (((..((....))..))) under 50 °C?
FALSE

Quick check: Tm of GATCTCTGTGGAGATC ((((((....)))))) under 50 °C?
FALSE

---

// folding enthalpy lookup, one value per entry
# protocol.details: folding enthalpy; higher = less favourable; fluorescence melt of hairpins on a sequencing array, two-state fit
# setup.conditions: sodium 0.088 M
Numbers only here, please. The scale is kcal/mol.

Please review the following examples before continuing.
> print(dat)
                                seq.text   outcome.measure  recorded.result
1  GCCACCGAAAGGTAAGGC ((((((....)))..)))  folding enthalpy            -26.9
2  GGACGCTCGAAAGAGTCC (((..(((....))))))  folding enthalpy            -22.1
3  GCTCTTCCGAAAGGAAGC (((..(((....))))))  folding enthalpy               -9

Could you now look at the following sequence, please?
Return the recorded folding enthalpy value; entry: GATCCAGGGCTGGATC ((((((....))))))
-38.3

---

# protocol.details: melting temperature; fluorescence melt of hairpins on a sequencing array, two-state fit, raised by 9.35 °C to match UV melts
# setup.conditions: sodium 0.088 M
Output rule met for Tm not less than 50 °C; output rule not met otherwise.

Record excerpt, results attached:
> print(dat)
                                seq.text    class.name
1      GATCGGCCTACCGATC ((((((....))))))      rule met
2  GTTTATCGAAAGATCAAC (((.(((....))).)))  rule not met
3      GATCTAATACTAGATC ((((((....))))))  rule not met
4  GTGTGCGAAAGCATCCAC ((((((....)))..)))  rule not met
5  GCAACGGGAAACTGTTGC (((((.(....).)))))      rule met

Is it the case that GATCTAGGCCTAGATC ((((((....)))))) has Tm reaching or exceeding 50 °C?
rule met

Is it the case that GCCAAGCGAAAGCAAGGC (((..((....))..))) has Tm reaching or exceeding 50 °C?
rule met

Is it the case that GTGAGTGGAAACACTCGC (.(((((....))))).) has Tm reaching or exceeding 50 °C?
rule met

Is it the case that GATCGGGTTCCGATC ((((((...)))))) has Tm reaching or exceeding 50 °C?
rule met

Is it the case that GCAACAGAAATGTTGC ((((((....)))))) has Tm reaching or exceeding 50 °C?
rule met

Is it the case that GGATACGAAAGTAAGTCC ((((((....)))..))) has Tm reaching or exceeding 50 °C?
rule not met

Is it the case that GCAAGCCGAAAGGCATGC (((.(((....))).))) has Tm reaching or exceeding 50 °C?
rule met

Is it the case that GATCCTTACAGGATC ((((((...)))))) has Tm reaching or exceeding 50 °C?
rule met

Is it the case that GTAATCGGAAACGATTGC (.(((((....))))).) has Tm reaching or exceeding 50 °C?
rule not met

Is it the case that GCGTCTGGAAACAGACAC (.(((((....))))).) has Tm reaching or exceeding 50 °C?
rule not met

Is it the case that GGCAAGGAAACTTGCC ((((((....)))))) has Tm reaching or exceeding 50 °C?
rule met

Is it the case that GTTGCGTCGAAAGACAAC (((..(((....)))))) has Tm reaching or exceeding 50 °C?
rule not met

Is it the case that GATCTGGCACCAGATC ((((((....)))))) has Tm reaching or exceeding 50 °C?
rule met

Is it the case that GTACGCGGAAACGCATAC (((.(((....))).))) has Tm reaching or exceeding 50 °C?
rule not met
